Experimental System: MMP-13 catalytic domain (Homo sapiens)
Assay Method Text: Inhibition of MMP-13 catalytic domain (thiopeptolide substrate hydrolysis assay)
Format: biochemical
Run Parameters: values in text, given as about; read-out: IC50 with MMP-13 catalytic domain
IC50 values for the compounds below.

These solved cases illustrate the format of a correct answer.
Cc1c(SCc2cc(-c3ccc(Cl)cc3)no2)[nH]c(=O)n(Cc2ccccc2)c1=O [Example 20] :: ~1200 nM
Cc1c(SCc2cc(-c3ccc(Cl)cc3)on2)[nH]c(=O)n(Cc2ccccc2)c1=O [Example 6] :: ~2100 nM
COc1ccc2nc(Nc3[nH]c(=O)n(Cc4ccccc4)c(=O)c3C)sc2c1 [Example 29] :: ~440 nM

Now, please, on to the next compound.
Would you mind telling me what IC50 value was observed for COc1ccc(-c2cc(CSc3[nH]c(=O)n(Cc4ccccc4)c(=O)c3C)on2)cc1 [Example 7] ?
~440 nM
